- system: T1, rat beta CGRP (SEQ ID NO: 83) (rat, not fully specified)
- T1 construct: also called rat βCGRP; rat β-CGRP
- T1 peptide: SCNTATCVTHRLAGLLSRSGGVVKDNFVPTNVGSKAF
- methodSummary: SPR, 37 C, mutein captured, CGRP analyte
measureName: kon (M⁻¹ s⁻¹)

1. lipocalin mutein SEQ ID NO: 17 (designed binder, biotinylated by NHS chemistry for capture in SPR) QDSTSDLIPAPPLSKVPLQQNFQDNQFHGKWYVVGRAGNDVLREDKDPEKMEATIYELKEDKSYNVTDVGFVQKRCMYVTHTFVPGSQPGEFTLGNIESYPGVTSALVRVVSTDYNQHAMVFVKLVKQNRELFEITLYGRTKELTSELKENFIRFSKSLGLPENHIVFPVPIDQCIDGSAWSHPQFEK : 5.18e+06
2. lipocalin mutein SEQ ID NO: 9 (designed binder, biotinylated by NHS chemistry for capture in SPR) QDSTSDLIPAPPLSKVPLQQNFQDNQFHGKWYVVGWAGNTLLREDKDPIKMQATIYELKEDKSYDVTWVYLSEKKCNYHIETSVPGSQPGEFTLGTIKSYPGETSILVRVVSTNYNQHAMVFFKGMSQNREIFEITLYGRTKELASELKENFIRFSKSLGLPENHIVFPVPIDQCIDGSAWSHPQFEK : 3.68e+06
3. lipocalin mutein SEQ ID NO: 12 (designed binder, biotinylated by NHS chemistry for capture in SPR) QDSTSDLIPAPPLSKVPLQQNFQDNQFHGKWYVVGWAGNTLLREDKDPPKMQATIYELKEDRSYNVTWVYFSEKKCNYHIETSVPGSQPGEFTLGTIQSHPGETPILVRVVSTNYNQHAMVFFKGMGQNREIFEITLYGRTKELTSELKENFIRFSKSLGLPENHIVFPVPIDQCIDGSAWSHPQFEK : 1.17e+06
4. lipocalin mutein SEQ ID NO: 27 (designed binder, biotinylated by NHS chemistry for capture in SPR) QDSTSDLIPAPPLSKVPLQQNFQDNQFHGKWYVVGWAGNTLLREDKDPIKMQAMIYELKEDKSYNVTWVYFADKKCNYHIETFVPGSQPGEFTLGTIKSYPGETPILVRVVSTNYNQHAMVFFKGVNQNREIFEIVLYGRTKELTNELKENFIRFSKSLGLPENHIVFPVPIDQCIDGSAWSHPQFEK : 1.5e+06
5. lipocalin mutein SEQ ID NO: 8 (designed binder, biotinylated by NHS chemistry for capture in SPR) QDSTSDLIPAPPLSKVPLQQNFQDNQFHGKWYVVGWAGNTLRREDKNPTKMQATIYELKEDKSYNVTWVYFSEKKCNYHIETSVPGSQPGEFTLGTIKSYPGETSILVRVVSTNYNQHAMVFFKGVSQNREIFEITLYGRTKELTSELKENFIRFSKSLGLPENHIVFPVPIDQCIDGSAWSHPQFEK : 1.82e+06
6. lipocalin mutein SEQ ID NO: 14 (designed binder, biotinylated by NHS chemistry for capture in SPR) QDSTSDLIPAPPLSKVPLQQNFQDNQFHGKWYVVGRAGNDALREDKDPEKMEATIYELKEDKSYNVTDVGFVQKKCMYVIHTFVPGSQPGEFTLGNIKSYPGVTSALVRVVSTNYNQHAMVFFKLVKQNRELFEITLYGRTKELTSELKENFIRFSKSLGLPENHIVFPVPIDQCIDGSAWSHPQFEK : 1.69e+06
7. lipocalin mutein SEQ ID NO: 16 (designed binder, biotinylated by NHS chemistry for capture in SPR) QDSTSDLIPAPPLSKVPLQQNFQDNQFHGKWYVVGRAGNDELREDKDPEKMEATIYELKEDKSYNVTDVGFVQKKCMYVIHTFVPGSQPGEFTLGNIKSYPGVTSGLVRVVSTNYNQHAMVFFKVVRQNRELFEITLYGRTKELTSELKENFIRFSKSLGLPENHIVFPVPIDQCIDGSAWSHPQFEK : 2.37e+06
8. lipocalin mutein SEQ ID NO: 25 (designed binder, biotinylated by NHS chemistry for capture in SPR) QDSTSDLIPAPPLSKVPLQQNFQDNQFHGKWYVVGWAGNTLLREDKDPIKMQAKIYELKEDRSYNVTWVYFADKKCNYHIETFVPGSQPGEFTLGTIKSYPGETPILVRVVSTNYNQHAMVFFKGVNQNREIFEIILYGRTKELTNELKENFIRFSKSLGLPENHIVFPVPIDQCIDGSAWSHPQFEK : 1.64e+06
9. lipocalin mutein SEQ ID NO: 15 (designed binder, biotinylated by NHS chemistry for capture in SPR) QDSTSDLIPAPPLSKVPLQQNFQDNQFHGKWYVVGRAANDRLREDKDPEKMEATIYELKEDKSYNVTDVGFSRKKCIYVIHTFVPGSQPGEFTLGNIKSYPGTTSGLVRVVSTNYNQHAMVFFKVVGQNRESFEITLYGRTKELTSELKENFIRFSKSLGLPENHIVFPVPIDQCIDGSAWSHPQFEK : 4.98e+06
10. lipocalin mutein SEQ ID NO: 20 (designed binder, biotinylated by NHS chemistry for capture in SPR) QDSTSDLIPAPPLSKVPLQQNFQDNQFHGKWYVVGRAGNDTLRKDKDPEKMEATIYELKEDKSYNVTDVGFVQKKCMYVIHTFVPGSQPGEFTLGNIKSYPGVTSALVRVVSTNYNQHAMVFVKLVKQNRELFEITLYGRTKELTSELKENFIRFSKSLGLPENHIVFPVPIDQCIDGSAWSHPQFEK : 1.38e+06
11. lipocalin mutein SEQ ID NO: 4 (designed binder, biotinylated by NHS chemistry for capture in SPR) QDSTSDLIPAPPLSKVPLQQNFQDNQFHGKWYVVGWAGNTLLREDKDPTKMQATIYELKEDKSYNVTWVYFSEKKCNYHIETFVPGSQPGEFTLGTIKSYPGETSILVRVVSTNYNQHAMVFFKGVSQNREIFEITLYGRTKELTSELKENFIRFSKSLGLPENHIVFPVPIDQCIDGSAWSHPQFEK : 1.66e+06
